Tested on: Hyperlipemia Model of SD Rat
Assay: Screening in the hyperlipemia model of SD rat (fat emulsion by gavage; serum lipids)
Format: in vivo
Conditions: hyperlipemia SD rats, 40 mg/kg, dosed 21 days, X ± SD
measured attribute: HDL-C Concentration (serum high-density lipoprotein) (mmol/L)

[
  {
    "compound": "CC(C)(Oc1ccc(C(=O)c2ccc(Cl)cc2)cc1)C(=O)NCC(=O)c1ccc(OC(=O)C(C)(C)Oc2ccc(C(=O)c3ccc(Cl)cc3)cc2)cc1",
    "unit descriptor": "mmol/L",
    "value reported": 1.82
  },
  {
    "compound": "CC(C)(Oc1ccc(CCNC(=O)c2ccc(Cl)cc2)cc1)C(=O)NCC(=O)c1ccc(OC(=O)C(C)(C)Oc2ccc(CCNC(=O)c3ccc(Cl)cc3)cc2)cc1",
    "unit descriptor": "mmol/L",
    "value reported": 1.68
  },
  {
    "compound": "CC(Oc1ccc(Cl)cc1)(C(=O)NCC(=O)c1ccc(O)cc1)C1CC1 (centres unmarked)",
    "unit descriptor": "mmol/L",
    "value reported": 2.63
  },
  {
    "compound": "Cc1ccc(C)c(OCCCC(C)(C)C(=O)NCC(=O)c2ccc(CO)cc2)c1",
    "unit descriptor": "mmol/L",
    "value reported": 1.69
  },
  {
    "compound": "CC(C)(Oc1ccc(Cl)cc1)C(=O)NCC(=O)c1ccc(O)cc1",
    "unit descriptor": "mmol/L",
    "value reported": 2.18
  },
  {
    "compound": "CC(C)(Oc1ccc(C(=O)c2ccc(Cl)cc2)cc1)C(=O)NCC(=O)c1ccc(O)cc1",
    "unit descriptor": "mmol/L",
    "value reported": 1.54
  },
  {
    "compound": "CCC(CCCOc1cc(C)ccc1C)C(=O)N(C)CC(=O)c1cc(C)cc(O)c1 (centres unmarked)",
    "unit descriptor": "mmol/L",
    "value reported": 1.32
  },
  {
    "compound": "Cc1ccc(C)c(OCCCC(C)(C)C(=O)NCC(=N)c2ccc(O)c(Cl)c2)c1",
    "unit descriptor": "mmol/L",
    "value reported": 1.82
  }
]

# credit: patent US10428013B2
